Molecular target: human progesterone receptor A (Homo sapiens, UniProt P06401)
Sequence (P06401 1-769 isoform P06401-2): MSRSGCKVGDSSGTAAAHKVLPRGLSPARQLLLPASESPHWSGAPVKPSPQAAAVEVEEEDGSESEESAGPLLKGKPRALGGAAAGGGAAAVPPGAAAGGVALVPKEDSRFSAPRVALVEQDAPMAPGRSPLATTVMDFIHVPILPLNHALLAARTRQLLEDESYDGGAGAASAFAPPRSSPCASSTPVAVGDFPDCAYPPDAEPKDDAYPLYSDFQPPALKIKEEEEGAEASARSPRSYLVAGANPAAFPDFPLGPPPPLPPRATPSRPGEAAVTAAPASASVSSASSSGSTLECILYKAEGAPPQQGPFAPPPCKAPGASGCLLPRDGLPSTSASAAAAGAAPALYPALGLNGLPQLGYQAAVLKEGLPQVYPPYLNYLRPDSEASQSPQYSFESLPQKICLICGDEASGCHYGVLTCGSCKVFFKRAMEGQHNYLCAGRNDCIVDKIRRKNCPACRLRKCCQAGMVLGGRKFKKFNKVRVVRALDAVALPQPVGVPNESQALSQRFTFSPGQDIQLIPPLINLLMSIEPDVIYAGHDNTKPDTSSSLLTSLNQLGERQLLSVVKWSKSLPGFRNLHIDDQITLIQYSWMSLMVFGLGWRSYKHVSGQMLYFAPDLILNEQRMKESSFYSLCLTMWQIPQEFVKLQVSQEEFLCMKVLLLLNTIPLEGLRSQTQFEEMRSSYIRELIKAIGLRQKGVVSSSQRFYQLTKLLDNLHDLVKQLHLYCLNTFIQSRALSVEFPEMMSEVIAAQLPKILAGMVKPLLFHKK
Assay: Progesterone receptor-antagonistic action in stably transfected SK-N-MC cells, MMTV-LUC reporter (PR-A)
Settings: antagonistic potency vs 0.1 nmol/l promegestone, 24 hours
From the text: Progesterone Receptor-Antagonistic Action in Stable Transfectants of Human Neuroblastoma Cells (SK-N-MC Cells) with the Human Progesterone A or Progesterone B Receptor and an MN-LUC Reporter Construct […]
pIC50: −log10 of the molar value.
quantity_measured: pIC50

1: C[C@]12C[C@H](c3ccc(C#N)cc3)C3=C4CCC(=O)C=C4CC[C@H]3[C@@H]1CC[C@@]2(O)C(F)(F)C(F)(F)F
2: C[C@]12C[C@H](c3ccc(COC(=O)Nc4ccc(F)cc4)cc3)C3=C4CCC(=O)C=C4CC[C@H]3[C@@H]1CC[C@@]2(O)C(F)(F)C(F)(F)F
// which entry has the larger pIC50 value, 1 or 2 ? Label of pick, please.
1
(1: 10.70, 2: 10.05)

----------
target: human progesterone receptor A (Homo sapiens, UniProt P06401); assay: Progesterone receptor-antagonistic action in stably transfected SK-N-MC cells, MMTV-LUC reporter (PR-A); conditions: antagonistic potency vs 0.1 nmol/l promegestone, 24 hours
pIC50: −log10 of the molar value.
quantity_measured: pIC50

Use the examples below as a reference point.
- compound: "C[C@]12C[C@H](c3ccc(CNC(=O)Nc4ccc(C(=O)O)cc4)cc3)C3=C4CCC(=O)C=C4CC[C@H]3[C@@H]1CC[C@@]2(O)C(F)(F)C(F)(F)F [Example 38]"
  quantity_measured: "pIC50"
  test_result: 7.60
- compound: "CC(C)(C)c1ccc(NC(=O)NCc2ccc([C@H]3C[C@@]4(C)[C@@H](CC[C@@]4(O)C(F)(F)C(F)(F)F)[C@@H]4CCC5=CC(=O)CCC5=C43)cc2)cc1 [Example 35]"
  quantity_measured: "pIC50"
  test_result: 9.52
- compound: "C[C@]12C[C@H](c3ccc(CNC(=O)c4cccnc4)cc3)C3=C4CCC(=O)C=C4CC[C@H]3[C@@H]1CC[C@@]2(O)C(F)(F)C(F)(F)F [Example 54]"
  quantity_measured: "pIC50"
  test_result: 9.52
- compound: "CCOC(=O)CCNC(=O)OCc1ccc([C@H]2C[C@@]3(C)[C@@H](CC[C@@]3(O)C(F)(F)C(F)(F)F)[C@@H]3CCC4=CC(=O)CCC4=C32)cc1 [Example 57]"
  quantity_measured: "pIC50"
  test_result: 10.00
- compound: "C[C@]12C[C@H](c3ccc(CCc4ccncc4)cc3)C3=C4CCC(=O)C=C4CC[C@H]3[C@@H]1CC[C@@]2(O)C(F)(F)C(F)(F)F [Example 8]"
  quantity_measured: "pIC50"
  test_result: 10.10

1: CCOC(=O)c1ccc(NC(=O)NCc2ccc([C@H]3C[C@@]4(C)[C@@H](CC[C@@]4(O)C(F)(F)C(F)(F)F)[C@@H]4CCC5=CC(=O)CCC5=C43)cc2)cc1 [Example 36]
2: CC(CO)(CO)c1ccc([C@H]2C[C@@]3(C)[C@@H](CC[C@@]3(O)C(F)(F)C(F)(F)F)[C@@H]3CCC4=CC(=O)CCC4=C32)cc1 [Example 15A]
3: CC1(c2ccc([C@H]3C[C@@]4(C)[C@@H](CC[C@@]4(O)C(F)(F)C(F)(F)F)[C@@H]4CCC5=CC(=O)CCC5=C43)cc2)COC1 [Example 40]
4: C[C@]12C[C@H](c3ccc(CNC(=O)NCCC(=O)O)cc3)C3=C4CCC(=O)C=C4CC[C@H]3[C@@H]1CC[C@@]2(O)C(F)(F)C(F)(F)F [Example 27]
5: C[C@]12C[C@H](c3ccc(COC(=O)NCc4ccccc4)cc3)C3=C4CCC(=O)C=C4CC[C@H]3[C@@H]1CC[C@@]2(O)C(F)(F)C(F)(F)F [Example 56]
Ascending sort, pIC50. Please list each label once, in the requested order.
4, 1, 5, 2, 3
(4: 7.37, 1: 9.15, 5: 9.70, 2: 10.05, 3: 11.00)

Origin of the recorded values: patent US9206219B2
